Parameter: log10(Ki). Scope: all listed entries.
System Under Test: Vasopressin V1a receptor (Homo sapiens, UniProt P37288)
Sequence (P37288 whole entry): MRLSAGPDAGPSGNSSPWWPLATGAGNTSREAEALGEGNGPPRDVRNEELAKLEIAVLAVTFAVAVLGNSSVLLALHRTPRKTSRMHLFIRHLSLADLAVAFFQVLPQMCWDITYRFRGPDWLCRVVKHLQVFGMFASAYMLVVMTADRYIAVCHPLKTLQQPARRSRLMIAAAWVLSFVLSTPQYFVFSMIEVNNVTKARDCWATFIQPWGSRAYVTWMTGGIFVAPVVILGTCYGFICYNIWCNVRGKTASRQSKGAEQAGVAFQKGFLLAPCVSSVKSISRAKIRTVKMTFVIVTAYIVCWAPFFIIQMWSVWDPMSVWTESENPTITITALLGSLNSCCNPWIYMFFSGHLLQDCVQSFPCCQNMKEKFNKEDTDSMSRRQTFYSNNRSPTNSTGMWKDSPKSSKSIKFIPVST
Assay Details: Displacement of [125I] phenylacetyl-D-Tyr(Me)-Phe-Gln-Asn-Arg-Pro-Arg-Tyr-NH2 from human recombinant vasopressin V1a receptor expressed in HEK293 after 2 hrs by liquid scintillation counting method
Field: value | Transform: log10 | Quantity: Ki | Unit: nM

Return log10(Ki) measured with Vasopressin V1a receptor (Homo sapiens, UniProt P37288) given this molecule: Cc1ccccc1C(=O)Nc1ccc(C(=O)N2CCC[C@@H](O)c3c(C)cccc32)cc1 (atropisomer aR)
1.89

Recall the recorded log10(Ki) for `Cc1ccccc1C(=O)Nc1ccc(C(=O)N2CCC[C@@H](O)c3cccc(C)c32)cc1` with Vasopressin V1a receptor (Homo sapiens, UniProt P37288) and state it.
0.45

What is its log10(Ki) for Vasopressin V1a receptor (Homo sapiens, UniProt P37288)? Entry: `Cc1ccccc1C(=O)Nc1ccc(C(=O)N2CCC[C@H](O)c3cccc(C)c32)cc1`
0.67

* * *

System Under Test: UniProt P37288
Assay Details: Displacement of [125I] phenylacetyl-D-Tyr(Me)-Phe-Gln-Asn-Arg-Pro-Arg-Tyr-NH2 from human recombinant vasopressin V1a receptor expressed in HEK293 after 2 hrs by liquid scintillation counting method
// classify: if (Ki < 6 nM) satisfied else not satisfied

Quick check: does Cc1ccccc1C(=O)Nc1ccc(C(=O)N2CCCC(O)c3ccccc32)cc1 (racemic) have Ki under 6 nM?
satisfied

Input `Cc1ccccc1C(=O)Nc1ccc(C(=O)N2CCC[C@H](O)c3ccccc32)cc1` ; condition: Ki strictly below 6 nM. Does it hold?
satisfied

* * *

System Under Test: UniProtKB P37288
Assay Details: Displacement of [125I] phenylacetyl-D-Tyr(Me)-Phe-Gln-Asn-Arg-Pro-Arg-Tyr-NH2 from human recombinant vasopressin V1a receptor expressed in HEK293 after 2 hrs by liquid scintillation counting method
Readout Label: Ki (nM)
Dear colleague, please return just the value in nM, with no unit written.

Solved cases (3 shown):
Cc1ccccc1C(=O)Nc1ccc(C(=O)N2CCC[C@H](O)c3c(C)cccc32)cc1; 2.06
Cc1ccccc1C(=O)Nc1ccc(C(=O)N2CCCC(O)c3c(C)cccc32)cc1 (racemic); 6.75
Cc1ccccc1C(=O)Nc1ccc(C(=O)N2CCC[C@@H](O)c3ccccc32)cc1; 1.03

Below: the item to evaluate.
Give the measured Ki of Cc1ccccc1C(=O)Nc1ccc(C(=O)N2CCCC(O)c3cccc(C)c32)cc1 (centres undefined) .
6.26
